test system: hospital-acquired methicillin-resistant Staphylococcus aureus HA-MRSA (ATCC 33591); assay: Minimum inhibitory concentration (MIC); format: cell-based; details: Table 6
Some molecules, each annotated with its measured MIC HA-MRSA.

# smi, MIC HA-MRSA
measured = [
    ("CCCCCCCCCCC[N+](C)(C)CCC[N+](CCC[N+](C)(C)CCCCCCCCCCC)(CCC[N+](C)(C)CCCCCCCCCCC)Cc1ccccc1", "≤0.25 µM"),
    ("CCCCCCCCCCCC[N+](C)(C)CCC[N+](C)(CCC[N+](C)(C)CCCCCCCCCCCC)CCC[N+](C)(C)CCCCCCCCCCCC", "2 µM"),
    ("CCCCCCCCCC[N+](C)(C)CCCN(CCC[N+](C)(C)CCCCCCCCCC)CCC[N+](C)(C)CCCCCCCCCC", "0.5 µM"),
    ("C=CC[N+](CCC[N+](C)(C)CCCCCCCC)(CCC[N+](C)(C)CCCCCCCC)CCC[N+](C)(C)CCCCCCCC", "8 µM"),
    ("CCCCCCCC[N+](C)(C)CCC[N+](C)(CCC[N+](C)(C)CCCCCCCC)CCC[N+](C)(C)CCCCCCCC", "16 µM"),
    ("CCCCCCCCCCCCCC[N+](C)(C)CCCN(CCC[N+](C)(C)CCCCCCCCCCCCCC)CCC[N+](C)(C)CCCCCCCCCCCCCC", "2 µM"),
]

Cited source: patent US20180111893A1
